log10 of MIC for assorted compounds
test system: Escherichia coli DC2; experiment: In Vitro Anti-Bacterial Activity Test (MIC, agar dilution); format: cell-based; details: Escherichia coli, DC2, 18 h
Structures can show the parent of a compound that is named as a salt.
Note: values are log10 of MIC expressed in µg/mL.

IN: Record request: log10 of MIC value, item CNCC1=CCN(c2c(F)cc3c(=O)c(C(=O)C[N+](=O)[O-])cn(C4CC4)c3c2Cl)C1 [Example 16, hydrochloride]
OUT: -1.89

IN: Record request: log10 of MIC value, item CCOC(=O)C(C(N)=O)C(=O)c1cn(C2CC2)c2c(Cl)c(N3CCC(N)C3)c(F)cc2c1=O (centres unmarked) [Example 52, hydrochloride]
OUT: -1.60

IN: Record request: log10 of MIC value, item N#CC(C#N)C(=O)c1cn(C2CC2)c2c(Cl)c(N3CCC(N)C3)c(F)cc2c1=O (centres unmarked) [Example 45, hydrochloride]
OUT: -0.11

IN: Record request: log10 of MIC value, item CCOC(=O)C(C(=O)OCC)C(=O)c1cn(C2CC2)c2c(Cl)c(N3CC4=C(CNC4)C3)c(F)cc2c1=O [Example 36, hydrochloride]
OUT: -1.31

---

tested on: Klebsiella oxytoca 1082E; assay: In Vitro Anti-Bacterial Activity Test (MIC, agar dilution); assay type: cell-based; conditions: Klebsiella oxytoca 1082E; Muller-Hinton agar, 37° C., 18 hours; read-out: MIC
Structures can show the parent of a compound that is named as a salt.
MIC for assorted compounds
// units = µg/mL; emit number, no label

Recorded results for 3 compounds are shown here.
                                   compound  readout_value
0  CC(=O)C(C(C)=O)C(=O)c1cn(C2CC2)c2c(Cl)c(N3CCC(N)C3)c(F)cc2c1=O (stereo not shown) [Example 48, hydrochloride]          0.195
1  CCOC(=O)CC(=O)c1cn(C2CC2)c2cc(N3CCNCC3)c(F)cc2c1=O [Example 19, hydrochloride]          0.013
2  CCOC(=O)C(C(=O)OCC)C(=O)c1cn(C2CC2)c2c(Cl)c(N3CC[C@@H](NC)C3)c(F)cc2c1=O [Example 55, hydrochloride]          0.025

IN: Record request: MIC value, item CCOC(=O)C(C(=O)OCC)C(=O)c1cn(C2CC2)c2c(Cl)c(N3CCC(NC)C3)c(F)cc2c1=O (stereo not shown) [Example 57, hydrochloride]
OUT: 0.049

---

test system: Klebsiella aerogenes 1522E; experiment: In Vitro Anti-Bacterial Activity Test (MIC, agar dilution); assay type: cell-based; details: Klebsiella aerogenes, 1522E, 18 h, Klebsiella aerogenes 1522E; Muller-Hinton agar, 37° C., 18 hours; read-out: MIC
Where a name gives a salt, the structure may show the parent alone.
assay endpoint: MIC (µg/mL)
// units = µg/mL; emit number, no label

Recorded results for 6 compounds are shown here.
>>> print(df.to_string())
                                   compound               target_system  assay_endpoint  readout_value
0  COc1c(N2CCC(N)C2)c(F)cc2c(=O)c(C(=O)C[N+](=O)[O-])cn(C3CC3)c12 (stereo not shown) [Example 49, hydrochloride]  Klebsiella aerogenes 1522E             MIC          0.098
1  CCOC(=O)CC(=O)c1cn(C2CC2)c2c(Cl)c(N3CCC(N)C3)c(F)cc2c1=O (stereo not shown) [Example 25, hydrochloride]  Klebsiella aerogenes 1522E             MIC          0.013
2  NCC1CCN(c2c(F)cc3c(=O)c(C(=O)C[N+](=O)[O-])cn(C4CC4)c3c2Cl)C1 (stereo not shown) [Example 53, hydrochloride]  Klebsiella aerogenes 1522E             MIC          0.013
3  CN[C@@H]1CCN(c2c(F)cc3c(=O)c(C(=O)C[N+](=O)[O-])cn(C4CC4)c3c2OC)C1 [Example 64, hydrochloride]  Klebsiella aerogenes 1522E             MIC          0.098
4  CCOC(=O)C(C(=O)OCC)C(=O)c1cn(C2CC2)c2c(Cl)c(N3CC[C@@H](NC)C3)c(F)cc2c1=O [Example 55, hydrochloride]  Klebsiella aerogenes 1522E             MIC          0.049
5  CN[C@H]1CCN(c2c(F)cc3c(=O)c(C(=O)C[N+](=O)[O-])cn(C4CC4)c3c2OC)C1 [Example 65, hydrochloride]  Klebsiella aerogenes 1522E             MIC          0.049

IN: Record request: MIC value, item O=C(C[N+](=O)[O-])c1cn(C2CC2)c2cc(N3CCNCC3)c(F)cc2c1=O [Example 4, hydrochloride]
OUT: 0.013

IN: Record request: MIC value, item CCOC(=O)C(C(=O)OCC)C(=O)c1cn(C2CC2)c2cc(N3CCNCC3)c(F)cc2c1=O [Example 18, hydrochloride]
OUT: 0.013

IN: Record request: MIC value, item O=C(C[N+](=O)[O-])c1cn(C2CC2)c2c(F)c(N3CCNCC3)c(F)cc2c1=O [Example 6, hydrochloride]
OUT: 0.007

IN: Record request: MIC value, item CCOC(=O)C(C(N)=O)C(=O)c1cn(C2CC2)c2c(Cl)c(N3CCC(N)C3)c(F)cc2c1=O (stereo not shown) [Example 52, hydrochloride]
OUT: 0.013

IN: Record request: MIC value, item N#CC(C#N)C(=O)c1cn(C2CC2)c2c(Cl)c(N3CCC(N)C3)c(F)cc2c1=O (stereo not shown) [Example 45, hydrochloride]
OUT: 0.391

IN: Record request: MIC value, item C[C@@H]1CN(c2c(F)c(N)c3c(=O)c(C(=O)C[N+](=O)[O-])cn(C4CC4)c3c2F)C[C@H](C)N1 [Example 14, hydrochloride]
OUT: 0.025

IN: Record request: MIC value, item CCOC(=O)C(C(=O)OCC)C(=O)c1cn(C2CC2)c2c(Cl)c(N3CC[C@H](N)C3)c(F)cc2c1=O [Example 24, hydrochloride]
OUT: 0.013

---

tested on: Staphylococcus aureus 503; assay: In Vitro Anti-Bacterial Activity Test (MIC, agar dilution); assay type: cell-based; settings: Staphylococcus aureus 503; Muller-Hinton agar, 37° C., 18 hours; read-out: MIC
Structures can show the parent of a compound that is named as a salt.
assay endpoint: MIC
I'd appreciate it if you wrote the number followed by its unit.

Recorded results for 2 compounds are shown here.
>>> df
                                   compound  assay_endpoint  readout_value
0  CCOC(=O)C(C(N)=O)C(=O)c1cn(C2CC2)c2c(Cl)c(N3CCC(N)C3)c(F)cc2c1=O (stereo not drawn) [Example 52, hydrochloride]             MIC    0.025 µg/mL
1  CN[C@@H]1CCN(c2c(F)cc3c(=O)c(C(=O)C[N+](=O)[O-])cn(C4CC4)c3c2Cl)C1 [Example 61, hydrochloride]             MIC    0.025 µg/mL

IN: Record request: MIC value, item CCOC(=O)CC(=O)c1cn(C2CC2)c2c(Cl)c(N3CC[C@@H](N)C3)c(F)cc2c1=O [Example 26, hydrochloride]
OUT: 0.098 µg/mL

---

MIC for assorted molecules
system: Escherichia coli 1507E; experiment: In Vitro Anti-Bacterial Activity Test (MIC, agar dilution); assay type: cell-based; conditions: Escherichia coli, 1507E, 18 h, Muller-Hinton agar, 37° C.
Where a name gives a salt, the structure may show the parent alone.
// units = µg/mL; emit number, no label

Recorded results for 5 molecules are shown here.
>>> df
                                   molecule           target_system  readout_value
0  O=C(C[N+](=O)[O-])c1cn(C2CC2)c2cc(N3CCNCC3)c(F)cc2c1=O [Example 4, hydrochloride]  Escherichia coli 1507E          0.007
1  NCC1CCN(c2c(F)cc3c(=O)c(C(=O)C[N+](=O)[O-])cn(C4CC4)c3c2Cl)C1 (stereo not shown) [Example 53, hydrochloride]  Escherichia coli 1507E          0.025
2  CNC1CCN(c2c(F)cc3c(=O)c(C(=O)C[N+](=O)[O-])cn(C4CC4)c3c2Cl)C1 (stereo not shown) [Example 63, hydrochloride]  Escherichia coli 1507E          0.007
3  CN[C@@H]1CCN(c2c(F)cc3c(=O)c(C(=O)C[N+](=O)[O-])cn(C4CC4)c3c2OC)C1 [Example 64, hydrochloride]  Escherichia coli 1507E          0.098
4  Cc1c(N2CCC(N)C2)c(F)cc2c(=O)c(C(=O)C[N+](=O)[O-])cn(C3CC3)c12 (stereo not shown) [Example 50, hydrochloride]  Escherichia coli 1507E          0.098

IN: Record request: MIC value, item CCOC(=O)CC(=O)c1cn(C2CC2)c2c(Cl)c(N3CC[C@@H](N)C3)c(F)cc2c1=O [Example 26, hydrochloride]
OUT: 0.025

IN: Record request: MIC value, item CCOC(=O)C(C#N)C(=O)c1cn(C2CC2)c2c(Cl)c(N3CCC(N)C3)c(F)cc2c1=O (stereo not shown) [Example 39, hydrochloride]
OUT: 0.781
